target: T1, soluble KDR extracellular domain (ECD) (Calbiochem) (human, UniProt P35968 20-764); test: Limited Antigen ELISA, KDR coat 25 ng/mL, supernatant 1:25
T1 construct: extracellular domain; Bought protein; also called KDR-ECD; VEGF Receptor 2 D1-7, Cat. #676490
T1 sequence (P35968 20-764): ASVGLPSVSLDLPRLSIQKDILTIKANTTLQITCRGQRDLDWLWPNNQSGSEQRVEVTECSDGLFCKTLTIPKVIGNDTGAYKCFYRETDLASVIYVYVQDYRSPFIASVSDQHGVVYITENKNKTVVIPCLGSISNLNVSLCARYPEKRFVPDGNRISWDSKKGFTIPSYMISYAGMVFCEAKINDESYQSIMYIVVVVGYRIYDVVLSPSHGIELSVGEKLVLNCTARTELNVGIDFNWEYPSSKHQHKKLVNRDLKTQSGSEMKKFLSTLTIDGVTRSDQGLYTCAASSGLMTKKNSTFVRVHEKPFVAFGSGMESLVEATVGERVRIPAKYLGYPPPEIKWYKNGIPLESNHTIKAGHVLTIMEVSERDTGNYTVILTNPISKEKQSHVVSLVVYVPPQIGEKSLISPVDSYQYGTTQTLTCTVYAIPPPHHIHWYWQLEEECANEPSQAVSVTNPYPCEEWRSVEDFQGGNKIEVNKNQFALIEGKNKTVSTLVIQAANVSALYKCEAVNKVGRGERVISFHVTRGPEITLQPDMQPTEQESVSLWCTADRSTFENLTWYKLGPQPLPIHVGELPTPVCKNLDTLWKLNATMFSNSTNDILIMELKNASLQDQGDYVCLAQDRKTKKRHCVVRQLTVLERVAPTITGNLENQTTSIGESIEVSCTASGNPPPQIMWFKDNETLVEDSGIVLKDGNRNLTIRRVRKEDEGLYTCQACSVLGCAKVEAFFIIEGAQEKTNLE
This section presents binders with their documented ELISA reading values.
Give the figure by itself; no unit, no explanation.

binder: 21H6 (antibody, V domains shown, Fully human mAb from XenoMouse hybridoma, tested as hybridoma supernatant) VH: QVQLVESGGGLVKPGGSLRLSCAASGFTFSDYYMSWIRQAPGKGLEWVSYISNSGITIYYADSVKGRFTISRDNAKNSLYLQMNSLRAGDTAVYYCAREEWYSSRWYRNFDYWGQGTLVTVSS VL: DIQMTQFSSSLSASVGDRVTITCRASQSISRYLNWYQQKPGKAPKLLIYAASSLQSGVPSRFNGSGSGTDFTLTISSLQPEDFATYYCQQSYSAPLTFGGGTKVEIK
ELISA reading: 0.97

Input: # input binder: 30A1 (antibody, V domains shown, Fully human mAb from XenoMouse hybridoma, tested as hybridoma supernatant) VH: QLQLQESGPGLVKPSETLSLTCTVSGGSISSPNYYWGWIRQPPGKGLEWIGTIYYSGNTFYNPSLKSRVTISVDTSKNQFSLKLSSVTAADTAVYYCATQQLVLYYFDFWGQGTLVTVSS VL: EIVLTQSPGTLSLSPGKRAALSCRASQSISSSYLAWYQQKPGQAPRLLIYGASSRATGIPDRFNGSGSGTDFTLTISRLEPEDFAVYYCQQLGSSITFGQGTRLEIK ; wanted: its ELISA reading
Output: 0.87

Input: So what does the record say about ELISA reading for 31E11 (antibody, V domains shown, Fully human mAb from XenoMouse hybridoma, tested as hybridoma supernatant) VH: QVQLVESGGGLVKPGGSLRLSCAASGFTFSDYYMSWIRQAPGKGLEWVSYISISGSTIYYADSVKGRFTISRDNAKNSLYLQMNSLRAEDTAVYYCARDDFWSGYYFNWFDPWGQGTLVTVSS VL: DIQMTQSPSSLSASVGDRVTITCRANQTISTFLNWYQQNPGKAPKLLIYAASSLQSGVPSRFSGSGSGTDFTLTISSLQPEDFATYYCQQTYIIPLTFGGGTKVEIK ?
Output: 1.24
